# assayed-system: Sm.TRPMPZQ (Schistosoma mansoni, UniProt A0A5K4F0X5)
# Sequence (A0A5K4F0X5 entry or part of it): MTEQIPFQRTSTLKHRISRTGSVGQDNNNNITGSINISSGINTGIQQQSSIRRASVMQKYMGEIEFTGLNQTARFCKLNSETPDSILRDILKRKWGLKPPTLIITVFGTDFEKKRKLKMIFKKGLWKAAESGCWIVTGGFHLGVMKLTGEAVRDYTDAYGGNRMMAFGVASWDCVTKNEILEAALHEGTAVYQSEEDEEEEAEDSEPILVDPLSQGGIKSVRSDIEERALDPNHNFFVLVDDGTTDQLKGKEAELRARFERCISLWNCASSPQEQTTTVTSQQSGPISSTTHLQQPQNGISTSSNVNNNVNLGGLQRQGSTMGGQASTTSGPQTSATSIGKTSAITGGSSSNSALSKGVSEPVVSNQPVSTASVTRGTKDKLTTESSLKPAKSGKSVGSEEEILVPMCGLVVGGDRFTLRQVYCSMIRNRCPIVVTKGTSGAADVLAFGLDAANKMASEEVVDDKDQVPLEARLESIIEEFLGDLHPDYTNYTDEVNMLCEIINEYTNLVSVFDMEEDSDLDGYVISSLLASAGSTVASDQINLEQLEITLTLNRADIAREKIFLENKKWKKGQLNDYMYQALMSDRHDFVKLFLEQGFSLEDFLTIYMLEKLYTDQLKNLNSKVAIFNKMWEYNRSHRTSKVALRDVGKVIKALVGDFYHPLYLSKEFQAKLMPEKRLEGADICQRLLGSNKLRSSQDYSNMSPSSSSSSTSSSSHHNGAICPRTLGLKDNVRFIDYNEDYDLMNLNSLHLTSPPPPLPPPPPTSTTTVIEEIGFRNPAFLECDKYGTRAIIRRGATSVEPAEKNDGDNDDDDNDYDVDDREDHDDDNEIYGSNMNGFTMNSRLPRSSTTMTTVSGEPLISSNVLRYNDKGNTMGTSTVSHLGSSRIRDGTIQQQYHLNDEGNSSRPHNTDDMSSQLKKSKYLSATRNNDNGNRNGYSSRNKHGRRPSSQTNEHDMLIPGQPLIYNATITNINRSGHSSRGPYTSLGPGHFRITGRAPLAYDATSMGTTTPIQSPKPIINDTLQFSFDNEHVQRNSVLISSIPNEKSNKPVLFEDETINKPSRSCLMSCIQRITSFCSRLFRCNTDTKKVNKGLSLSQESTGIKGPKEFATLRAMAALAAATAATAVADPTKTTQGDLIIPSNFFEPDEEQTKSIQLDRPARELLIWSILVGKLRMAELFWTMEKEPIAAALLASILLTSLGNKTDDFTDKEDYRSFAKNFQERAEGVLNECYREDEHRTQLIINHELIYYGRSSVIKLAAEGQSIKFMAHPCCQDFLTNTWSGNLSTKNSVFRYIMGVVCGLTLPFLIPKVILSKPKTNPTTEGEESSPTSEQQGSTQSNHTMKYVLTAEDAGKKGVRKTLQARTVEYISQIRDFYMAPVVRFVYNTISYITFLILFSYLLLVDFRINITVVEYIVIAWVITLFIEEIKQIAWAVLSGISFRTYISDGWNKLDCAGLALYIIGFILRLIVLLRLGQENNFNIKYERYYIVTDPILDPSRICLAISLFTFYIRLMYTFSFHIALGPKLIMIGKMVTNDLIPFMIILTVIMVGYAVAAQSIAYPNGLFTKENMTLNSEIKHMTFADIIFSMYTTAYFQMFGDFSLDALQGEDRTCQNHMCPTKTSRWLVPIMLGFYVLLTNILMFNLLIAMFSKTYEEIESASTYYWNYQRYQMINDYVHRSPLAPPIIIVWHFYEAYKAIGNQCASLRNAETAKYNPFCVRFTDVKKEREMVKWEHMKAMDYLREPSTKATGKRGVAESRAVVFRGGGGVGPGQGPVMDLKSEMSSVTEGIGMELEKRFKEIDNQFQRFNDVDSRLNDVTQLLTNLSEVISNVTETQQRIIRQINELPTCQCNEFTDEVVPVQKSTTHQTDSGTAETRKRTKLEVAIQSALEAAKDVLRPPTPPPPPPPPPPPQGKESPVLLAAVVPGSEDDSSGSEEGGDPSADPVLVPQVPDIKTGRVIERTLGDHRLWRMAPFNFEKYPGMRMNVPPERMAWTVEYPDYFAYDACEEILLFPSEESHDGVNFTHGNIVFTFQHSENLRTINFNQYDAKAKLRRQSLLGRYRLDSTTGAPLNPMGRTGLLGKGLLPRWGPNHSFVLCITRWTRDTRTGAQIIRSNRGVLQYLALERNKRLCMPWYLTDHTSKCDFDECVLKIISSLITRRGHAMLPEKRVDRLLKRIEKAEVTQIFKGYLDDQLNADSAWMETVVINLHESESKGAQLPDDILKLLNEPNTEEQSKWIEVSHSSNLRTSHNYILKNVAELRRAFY
# procedure-summary: cell-based
# Format: cell-based
# setup-conditions: HEK293 transient expression, mean ± SEM, n ≥ 3 independent transfections; read-out: this work: EC50 (μM) Sm.TRPMPZQ

compound	assayed-system	EC50
O=C(c1cccnc1)N1CC(=O)N2CCc3ccccc3[C@@H]2C1 [(R)-2]	Sm.TRPMPZQ (Schistosoma mansoni, UniProt A0A5K4F0X5)	> 100 µM
